test system: OVCAR-4 ovarian; test: NCI-60 one-dose screen, 48 h; conditions: 10 µM unless noted
This is part of a sample that, as a whole, favours compounds with a hit. Of some 83,000 tested, about 20% had one in any assay. The source made the active and inactive calls. How the source made its calls: active means growth percent below 10; inactive means the rest.
// classify into active, inactive

Before answering, review these 5 worked examples.
Compound	Category
Cn1cc(-c2cc(N)n3nc(-c4cn(C)c5ccccc45)cc3n2)c2cc(Cl)ccc21	active
CC1(C)CC[C@]2(C(=O)O)CC[C@]3(C)C(=CCC4[C@@]5(C)C[C@@H](O)[C@@H]6OC(c7ccco7)OC[C@@]6(C)C5CC[C@]43C)C2C1 (some centres undefined)	inactive
O=C(/C=C/Nc1ccc2oc(=O)ccc2c1)c1cc2cc(Br)ccc2oc1=O	inactive
COCOc1cc2oc(C(=O)N[C@@H](Cc3ccccc3)C(O)C(=O)NCc3ccccc3)c(C)c(=O)c2cc1OCOC (some centres undefined)	inactive
O=C1c2c(c3c4cc(F)ccc4oc3c3[nH]c4ccc(Br)cc4c23)C(=O)N1O	inactive

// query What outcome does the record of this test show for `Cn1cc(-c2cc(N)n3nc(-c4cn(C)c5ccc(Cl)cc45)cc3n2)c2ccccc21` ?
// result inactive

// query What do you get for `COc1ccc(C(=O)/C=C/c2cccc(Cl)c2Cl)cc1S(N)(=O)=O` ?
// result inactive

// query And for `O=C(CCN1C(=O)/C(=C/c2ccc(F)cc2)SC1=S)N1CCOCC1` ?
// result inactive

// query Next compound: `N#Cc1c(-c2cccc(O)c2O)cc(-c2ccc3ccccc3c2)[nH]c1=O`
// result inactive

src = PubChem BioAssay (NCI)
